B1: SAT2 (parent)
chain: GYGIYYFIYSTWKGRTIYLEDIYV

- Variants of: B1
- PROTOCOL DETAILS: protein stability index of a GFP-peptide fusion (GPS, HEK-293T) (PSI 1-6); higher = more stable;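 also: lentivirally expressed fusions sorted by FACS into six bins by GFP to DsRed ratio, PSI derived from sequencing read proportions per bin multiplied by bin number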
- RUN PARAMETERS: c terminus: a fixed tail appended
Outcome: true (1) for protein stability index of at least 3; false (0) for anything lower.

# VARIANT DESCRIPTION, QUALITATIVE LABEL
data = [
    ("W12C", "false (0)"),
    ("T11N", "true (1)"),
    ("I17D", "true (1)"),
    ("W12D", "false (0)"),
]

Record Y23L ; criterion: protein stability index no lower than 3. Met?
false (0)

Record Y18H ; criterion: protein stability index no lower than 3. Met?
false (0)

Record T11W ; criterion: protein stability index no lower than 3. Met?
true (1)

Record L19G ; criterion: protein stability index no lower than 3. Met?
true (1)

Record Y2V ; criterion: protein stability index no lower than 3. Met?
false (0)

From: the supplement of paper PMC10567573
